Compiled record: IC50 values for ROCK2 (Homo sapiens) across several sources.
Please assign a class to every record based on measured IC50, with ranges lowest = under 20 nM, middle = from 20 nM up to 40 nM, highest = 40 nM and over

compound="CC(C)(O)COc1ccc2c(C(=O)NC3CC4(C3)CC(Oc3nc5c(cc3C(N)=O)CCCN5)C4)cnn2c1C1CC1 (stereo not drawn)" label_class=lowest
compound="N#Cc1cccc(C(=O)N[C@H]2C[C@]3(C2)C[C@H](Oc2nc4c(cc2C(N)=O)COCC4)C3)c1 (stereo partly drawn)" label_class=highest
compound=CCc1nc(N2CC3(CCN(C(=O)C(C)(C)CO)CC3)N(Cc3cccc(OC)c3)C2=O)ccc1-c1cn[nH]c1 label_class=lowest
compound=Cc1ccc2nc(NC(=O)Cc3ccc(Oc4ncccc4C(N)=O)c(F)c3)nn2c1C label_class=highest
compound=Cc1sc(NC(=O)Cc2ccc(Oc3ncccc3C(N)=O)c(F)c2)nc1-c1ccc(S(=O)(=O)C(C)C)cc1 label_class=highest
compound="COc1cc(N2CCC3(CCN(C(=O)c4ccc(N5CCN(C(C)CO)CC5)cc4)CC3)C2=O)ccc1-c1cn[nH]c1 (stereo not drawn)" label_class=lowest
compound=COc1cccc(CNC(=O)c2cc3ccc(-c4cn[nH]c4)nc3s2)c1 label_class=lowest
compound=Cc1[nH]ncc1-c1ccc(Nc2ccnc(-c3ccc4cc(C(=O)N5CC(F)(F)C5)n(C)c4c3)n2)cc1 label_class=middle
compound="CC(CCC1NC(=O)N([C@H]2C[C@@]3(C[C@H](Oc4ncccc4C(N)=O)C3)C2)C1=O)C(F)(F)F (stereo partly drawn)" label_class=middle
compound=CCc1ccc(-c2ccncc2)cc1C(=O)N[C@H](CO)c1cccc(C(=O)NC2CCCC2)c1 label_class=lowest
